System: 518A2 melanoma cells
Assay info: MTT assay, 518A2 melanoma cells
Type: cell-based, human
Assay setup: Homo sapiens, 518A2; MTT, 24 h, mean ± SD of four experiments; read-out: IC50 518A2 (24 h)
Param label: returns 1.0 when IC50 < 4 µM, returns 0.0 otherwise, including exact equality.

# check: IC50 < 4 µM for `COc1ccc(-c2ocnc2-c2cc(Cl)c(OC)c(OC)c2)cc1OCCCCC(=O)NO`
0.0

# check: IC50 < 4 µM for `COc1ccc(-c2ocnc2-c2cc(Cl)c(OC)c(OC)c2)cc1OCCCCCC(=O)NO`
0.0

# check: IC50 < 4 µM for `CCOC(=O)CCCOc1cc(-c2ocnc2-c2cc(OC)c(OC)c(OC)c2)ccc1OC`
0.0

# check: IC50 < 4 µM for `COc1ccc(-c2ocnc2-c2cc(OC)c(OC)c(OC)c2)cc1OCCCCC(=O)NO`
0.0

# check: IC50 < 4 µM for `COc1ccc(-c2ocnc2-c2cc(Br)c(OC)c(OC)c2)cc1OCCCCCC(=O)NO`
0.0

# check: IC50 < 4 µM for `COc1ccc(-c2ocnc2-c2cc(OC)c(OC)c(OC)c2)cc1OCCCC(=O)O`
0.0

# check: IC50 < 4 µM for `COc1ccc(-c2ocnc2-c2cc(OC)c(OC)c(OC)c2)cc1OCCCCCC(=O)NO`
0.0

# check: IC50 < 4 µM for `COc1ccc(-c2ocnc2-c2cc(Br)c(OC)c(OC)c2)cc1OCCCC(=O)NO`
1.0

# check: IC50 < 4 µM for `COc1ccc(-c2ocnc2-c2cc(Cl)c(OC)c(OC)c2)cc1OCCCC(=O)NO`
1.0

# check: IC50 < 4 µM for `COc1ccc(-c2ocnc2-c2cc(OC)c(OC)c(OC)c2)cc1OCCCC(=O)NO`
0.0

# check: IC50 < 4 µM for `COc1ccc(-c2ocnc2-c2cc(Br)c(OC)c(OC)c2)cc1OCCCCC(=O)NO`
1.0

###

Field: melting point. Provide a value for each of the compounds that follow.
Answer format: numeric, °C implied, no suffix.

Identify measured melting point associated with `COc1ccc(-c2ocnc2-c2cc(Cl)c(OC)c(OC)c2)cc1OCCCCCC(=O)NO`
189

Identify measured melting point associated with `COc1ccc(-c2ocnc2-c2cc(Cl)c(OC)c(OC)c2)cc1OCCCCC(=O)NO`
202

###

Subject of test: recombinant human HDAC1 (Homo sapiens)
Sequence (Q13547 whole entry): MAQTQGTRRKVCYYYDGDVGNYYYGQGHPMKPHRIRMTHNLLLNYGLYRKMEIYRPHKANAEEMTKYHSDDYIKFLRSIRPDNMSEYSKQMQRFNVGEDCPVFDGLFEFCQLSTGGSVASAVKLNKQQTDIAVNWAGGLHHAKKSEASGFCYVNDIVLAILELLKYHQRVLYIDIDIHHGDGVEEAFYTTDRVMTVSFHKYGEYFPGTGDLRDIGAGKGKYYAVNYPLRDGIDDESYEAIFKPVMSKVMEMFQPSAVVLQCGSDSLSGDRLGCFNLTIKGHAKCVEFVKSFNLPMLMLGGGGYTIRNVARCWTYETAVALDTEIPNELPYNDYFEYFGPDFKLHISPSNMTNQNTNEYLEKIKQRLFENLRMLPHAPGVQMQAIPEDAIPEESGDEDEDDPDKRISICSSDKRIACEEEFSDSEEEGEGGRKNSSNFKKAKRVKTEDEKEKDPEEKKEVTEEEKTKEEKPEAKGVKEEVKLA
Assay info: HDAC1 inhibitor screening assay (fluorometric)
Assay setup: recombinant human HDAC1, mean ± SD of two experiments; read-out: HDAC inhibition IC50, HDAC1
Assay readout: IC50 (µM)
Answer format: numeric, µM implied, no suffix.

Print recombinant human HDAC1 (Homo sapiens) IC50 for COc1ccc(-c2ocnc2-c2cc(Br)c(OC)c(OC)c2)cc1OCCCC(=O)NO [4d] .
4

Print recombinant human HDAC1 (Homo sapiens) IC50 for COc1ccc(-c2ocnc2-c2cc(Br)c(OC)c(OC)c2)cc1OCCCCCC(=O)NO [4f] .
0.49

Print recombinant human HDAC1 (Homo sapiens) IC50 for COc1ccc(-c2ocnc2-c2cc(Br)c(OC)c(OC)c2)cc1OCCCCC(=O)NO [4e] .
3.8

###

Test system: HT-29 colon carcinoma cells
Assay info: MTT assay, HT-29 colon carcinoma cells
Type: cell-based, human
Assay setup: Homo sapiens, HT-29; MTT, 24 h; read-out: IC50 HT-29 (24 h)
Assay readout: IC50

Identify measured IC50 associated with COc1ccc(-c2ocnc2-c2cc(Cl)c(OC)c(OC)c2)cc1OCCCCC(=O)NO [4b]
4.2 µM

Identify measured IC50 associated with COc1ccc(-c2ocnc2-c2cc(Cl)c(OC)c(OC)c2)cc1OCCCCCC(=O)NO [4c]
4.6 µM

Identify measured IC50 associated with CCOC(=O)CCCOc1cc(-c2ocnc2-c2cc(OC)c(OC)c(OC)c2)ccc1OC [3g]
> 100 µM

Identify measured IC50 associated with COc1ccc(-c2ocnc2-c2cc(OC)c(OC)c(OC)c2)cc1OCCCCCC(=O)NO [4i]
47.6 µM

Identify measured IC50 associated with COc1ccc(-c2ocnc2-c2cc(Cl)c(OC)c(OC)c2)cc1OCCCC(=O)NO [4a]
2.5 µM

Identify measured IC50 associated with COc1ccc(-c2ocnc2-c2cc(Br)c(OC)c(OC)c2)cc1OCCCCCC(=O)NO [4f]
6.6 µM

Identify measured IC50 associated with COc1ccc(-c2ocnc2-c2cc(Br)c(OC)c(OC)c2)cc1OCCCCC(=O)NO [4e]
2.1 µM

Identify measured IC50 associated with COc1ccc(-c2ocnc2-c2cc(OC)c(OC)c(OC)c2)cc1OCCCC(=O)O [4j]
> 100 µM

Identify measured IC50 associated with COc1ccc(-c2ocnc2-c2cc(OC)c(OC)c(OC)c2)cc1OCCCC(=O)NO [4g]
5 µM

Identify measured IC50 associated with COc1ccc(-c2ocnc2-c2cc(OC)c(OC)c(OC)c2)cc1OCCCCC(=O)NO [4h]
53.9 µM

Identify measured IC50 associated with COc1ccc(-c2ocnc2-c2cc(Br)c(OC)c(OC)c2)cc1OCCCC(=O)NO [4d]
1.3 µM

###

System: KB-V1^Vbl cervix carcinoma cells
Assay info: MTT assay, KB-V1^Vbl cervix carcinoma cells
Assay type: cell-based
Assay setup: Homo sapiens, read-out: IC50 KB-V1^Vbl (72 h)
Label scheme for IC50: lowest: < 2 µM; middle: ≥ 2 µM and < 9 µM; highest: ≥ 9 µM

Where would `COc1ccc(-c2ocnc2-c2cc(Cl)c(OC)c(OC)c2)cc1OCCCCC(=O)NO` land among the classes by reported IC50?
middle

Where would `COc1ccc(-c2ocnc2-c2cc(OC)c(OC)c(OC)c2)cc1OCCCCC(=O)NO` land among the classes by reported IC50?
highest

Where would `COc1ccc(-c2ocnc2-c2cc(Cl)c(OC)c(OC)c2)cc1OCCCCCC(=O)NO` land among the classes by reported IC50?
highest

Where would `COc1ccc(-c2ocnc2-c2cc(Br)c(OC)c(OC)c2)cc1OCCCCCC(=O)NO` land among the classes by reported IC50?
middle

Where would `COc1ccc(-c2ocnc2-c2cc(OC)c(OC)c(OC)c2)cc1OCCCC(=O)NO` land among the classes by reported IC50?
middle

Where would `COc1ccc(-c2ocnc2-c2cc(Br)c(OC)c(OC)c2)cc1OCCCC(=O)NO` land among the classes by reported IC50?
lowest

Where would `COc1ccc(-c2ocnc2-c2cc(Cl)c(OC)c(OC)c2)cc1OCCCC(=O)NO` land among the classes by reported IC50?
lowest
